The reported measurements were obtained from patent US8802720B2.

Molecular target: human Edg-2 receptor (LPA1 receptor) (Homo sapiens, UniProt Q92633)
Sequence (Q92633 whole entry): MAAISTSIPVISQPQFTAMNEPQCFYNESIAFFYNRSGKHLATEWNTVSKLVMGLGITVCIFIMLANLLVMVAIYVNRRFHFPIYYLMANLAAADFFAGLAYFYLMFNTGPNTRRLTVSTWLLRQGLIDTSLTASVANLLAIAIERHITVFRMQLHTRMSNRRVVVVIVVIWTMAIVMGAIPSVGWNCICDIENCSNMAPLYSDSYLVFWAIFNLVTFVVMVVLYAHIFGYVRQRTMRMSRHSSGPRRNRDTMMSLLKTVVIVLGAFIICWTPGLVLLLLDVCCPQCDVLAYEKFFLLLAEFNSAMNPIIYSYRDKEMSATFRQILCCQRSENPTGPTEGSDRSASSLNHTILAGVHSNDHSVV
Experiment: Edg-2 receptor inhibition by FLIPR calcium fluorescence measurement (LPA-mediated calcium liberation)
Details: CHO cells stably overexpressing human Edg-2 receptor; LPA 18:1 100 nM; fluo-4 fluorescence; triplicate; read-out: Inhibitory concentrations IC50 for inhibition of the Edg-2 receptor
pIC50: −log10 of the molar value.
Listed below: pIC50 values for each entry.

Sample answers from the record:
• COc1ccc(C(=O)NC2(C(=O)O)Cc3ccccc3C2)cc1OCCc1ccccc1C(F)(F)F = 4.52 to 6.00
• COc1ccc(-c2cc(C(=O)NC3(C(=O)O)Cc4ccccc4C3)ccc2OC)cc1Cl = > 7.00

Supply measured pIC50 of COc1c(F)cc(C(=O)NC2(C(=O)O)Cc3ccccc3C2)cc1-c1cccc(NS(C)(=O)=O)c1 in your reply.
> 7.00

Supply measured pIC50 of COc1ccc(C(=O)NC2(C(=O)O)Cc3ccccc3C2)cc1Cc1ccccc1 in your reply.
4.52 to 6.00

Supply measured pIC50 of COc1ccc(C(=O)NC2(C(=O)O)Cc3ccccc3C2)cc1NC(=O)Cc1cccc(Br)c1 in your reply.
4.52 to 6.00

Supply measured pIC50 of CCSc1cccc(-c2cc(C(=O)NC3(C(=O)O)Cc4ccccc4C3)ccc2OC)c1 in your reply.
> 7.00

Supply measured pIC50 of COc1ccc(C(=O)NC2(C(=O)O)Cc3ccccc3C2)cc1-c1ccc(CC(C)C)cc1 in your reply.
4.52 to 6.00

Supply measured pIC50 of COc1ccc(C(=O)NC2(C(=O)O)Cc3ccccc3C2)cc1C(=O)COc1cccc(C)c1 in your reply.
4.52 to 6.00

Supply measured pIC50 of CCCc1ccc(-c2cc(C(=O)NC3(C(=O)O)Cc4ccccc4C3)ccc2OC)cc1 in your reply.
4.52 to 6.00

Supply measured pIC50 of COc1ccc(C(=O)NC2(C(=O)O)Cc3ccccc3C2)cc1OCc1c(C)noc1C in your reply.
4.52 to 6.00

Supply measured pIC50 of COc1c(F)cc(C(=O)NC2(C(=O)O)Cc3ccccc3C2)cc1-c1ccc(Cl)cc1 in your reply.
> 7.00

Supply measured pIC50 of C=CCOc1ccc(C(=O)NC2(C(=O)O)Cc3ccccc3C2)cc1OCCc1cccc(C)c1 in your reply.
> 7.00

Supply measured pIC50 of COc1ncc(C(=O)NC2(C(=O)O)Cc3ccccc3C2)cc1-c1cccc(C(C)C)c1 in your reply.
> 7.00

Supply measured pIC50 of COc1ccc(C(=O)NC2(C(=O)O)Cc3ccccc3C2)cc1OCC1CCC(C)CC1 (centres unmarked) in your reply.
4.52 to 6.00

Supply measured pIC50 of CCS(=O)(=O)c1cccc(-c2cc(C(=O)NC3(C(=O)O)Cc4ccccc4C3)cnc2OC)c1 in your reply.
6.00 to 7.00

Supply measured pIC50 of COc1ccc(C(=O)NC2(C(=O)O)Cc3ccccc3C2)cc1-c1cccc(NC(C)=O)c1 in your reply.
6.00 to 7.00

Supply measured pIC50 of COc1ccc(C(=O)N(C)C2(C(=O)O)Cc3ccccc3C2)cc1OCCc1cccc(C)c1 in your reply.
6.00 to 7.00

Supply measured pIC50 of COc1ccc(C(=O)NC2(C(=O)O)Cc3ccccc3C2)cc1OCCc1cccc(CCNC(C)=O)c1 in your reply.
6.00 to 7.00

Supply measured pIC50 of COc1ccc(C(=O)NC2(C(=O)O)Cc3ccccc3C2)cc1OCCc1ccccn1 in your reply.
4.52 to 6.00

Supply measured pIC50 of COc1ccc(C(=O)NC2(C(=O)O)Cc3ccccc3C2)cc1OCC1(c2ccccc2)COC1 in your reply.
> 7.00

* * *

Target: human Edg-2 receptor (LPA1 receptor) (Homo sapiens, UniProt Q92633)
Assay: Edg-2 receptor inhibition by FLIPR calcium fluorescence measurement (LPA-mediated calcium liberation)
Details: CHO cells stably overexpressing human Edg-2 receptor; LPA 18:1 100 nM; fluo-4 fluorescence; triplicate; read-out: Inhibitory concentrations IC50 for inhibition of the Edg-2 receptor
pIC50: −log10 of the molar value.
Measured Property: pIC50

Sample answers from the record:
* COc1ccc(C(=O)NC2(C(=O)O)Cc3ccccc3C2)cc1NCC(C)c1ccccc1 (stereo not drawn) [Example 124] | 6.00 to 7.00
* COc1ncc(C(=O)NC2(C(=O)O)Cc3ccccc3C2)cc1-c1ccccc1Cl [Example 225] | 6.00 to 7.00
* COc1c(F)cc(C(=O)NC2(C(=O)O)Cc3ccccc3C2)cc1-c1cccc(NS(=O)(=O)N(C)C)c1 [Example 361] | > 7.00
* COc1ncc(C(=O)NC2(C(=O)O)Cc3ccccc3C2)cc1OCCc1cccc(CCO)c1 [Example 275] | > 7.00
* COc1ccc(C(=O)NC2(C(=O)O)Cc3ccccc3C2)cc1OCc1cc(-c2csc(C)n2)on1 [Example 74] | 4.52 to 6.00
* CNc1ccc(C(=O)NC2(C(=O)O)Cc3ccccc3C2)cc1OCCc1cccc(C)c1 [Example 164] | > 7.00
* COc1ccc(C(=O)NC2(C(=O)O)Cc3ccccc3C2)cc1OCCc1cccc(C#N)c1 [Example 94] | > 7.00
* CCSc1cccc(-c2cc(C(=O)NC3(C(=O)O)Cc4ccccc4C3)cnc2OC)c1 [Example 233] | > 7.00
* Cc1cccc(CCOc2cc(C(=O)NC3(C(=O)O)Cc4ccccc4C3)ccc2Br)c1 [Example 2] | > 7.00
* COc1ccc(C(=O)NC2(C(=O)O)Cc3ccccc3C2)cc1Cc1cccc(C)c1 [Example 244] | 6.00 to 7.00

Fill: pIC50 (human Edg-2 receptor (LPA1 receptor) (Homo sapiens, UniProt Q92633)) for this molecule COc1ccc(C(=O)NC2(C(=O)O)Cc3ccccc3C2)cc1OCCCc1ccc(Cl)cc1 [Example 62]
4.52 to 6.00

Fill: pIC50 (human Edg-2 receptor (LPA1 receptor) (Homo sapiens, UniProt Q92633)) for this molecule COc1cccc(CCOc2cc(C(=O)NC3(C(=O)O)Cc4ccccc4C3)ccc2OC)c1 [Example 133]
6.00 to 7.00

* * *

Target: human Edg-2 receptor (LPA1 receptor) (Homo sapiens)
Assay: Edg-2 receptor inhibition by FLIPR calcium fluorescence measurement (LPA-mediated calcium liberation)
Format: cell-based
Conditions: CHO cells stably overexpressing human Edg-2 receptor; LPA 18:1 100 nM; fluo-4 fluorescence; triplicate; read-out: Inhibitory concentrations IC50 for inhibition of the Edg-2 receptor
Listed below: IC50 values for each entry.

• COc1ccc(C(=O)NC2(C(=O)O)Cc3ccccc3C2)cc1S(=O)(=O)CCc1cccc(Cl)c1 = 1000 to 30000 nM
• COc1ccc(C(=O)NC2(C(=O)O)Cc3ccccc3C2)cc1-c1ccc(C(F)(F)F)c(Cl)c1 = < 100 nM
• COc1ccc(C(=O)NC2(C(=O)O)Cc3ccccc3C2)cc1Oc1cccc(C)c1 = 1000 to 30000 nM
• COc1ccc(C(=O)NC2(C(=O)O)Cc3ccccc3C2)cc1OCCc1cc(Cl)ccc1Cl = < 100 nM
• CCOc1ccc(C(=O)NC2(C(=O)O)Cc3ccccc3C2)cc1NCCc1cccc(C)c1 = 1000 to 30000 nM
• COc1ccc(C(=O)NC2(C(=O)O)Cc3ccccc3C2)cc1-c1cc(F)cc(C(F)(F)F)c1 = < 100 nM
• COc1ccc(C(=O)NC2(C(=O)O)Cc3ccccc3C2)cc1C(O)COc1cccc(C)c1 (stereo not drawn) = 1000 to 30000 nM
• COc1ccc(C(=O)NC2(C(=O)O)Cc3ccccc3C2)cc1OCc1nccc(Cl)c1OC = 1000 to 30000 nM

Supply measured IC50 of COc1ccc(C(=O)NC2(C(=O)O)Cc3ccccc3C2)cc1-c1cccc(C(F)(F)F)c1F in your reply.
< 100 nM

Supply measured IC50 of COc1ccc(C(=O)NC2(C(=O)O)Cc3ccccc3C2)cc1OCCc1ccccc1 in your reply.
< 100 nM

Supply measured IC50 of COc1c(OCCc2cccc(C)c2)cc(C(=O)NC2(C(=O)O)Cc3ccccc3C2)cc1[N+](=O)[O-] in your reply.
1000 to 30000 nM

Supply measured IC50 of COc1ncc(C(=O)NC2(C(=O)O)Cc3ccccc3C2)cc1-c1cccc(OC(F)(F)F)c1 in your reply.
< 100 nM

* * *

Target: human Edg-2 receptor (LPA1 receptor) (Homo sapiens)
Test: Edg-2 receptor inhibition by FLIPR calcium fluorescence measurement (LPA-mediated calcium liberation)
Type: cell-based
Conditions: CHO cells stably overexpressing human Edg-2 receptor; LPA 18:1 100 nM; fluo-4 fluorescence; triplicate; read-out: Inhibitory concentrations IC50 for inhibition of the Edg-2 receptor
Source text: A) Determination of Edg-2 Receptor Inhibition by Fluorescence Imaging Plate Reader (FLIPR) Measurements The inhibition of the Edg-2 receptor (LPA1 receptor) by the compounds of the invention was quantified by the inhibitory effect on the LPA-mediated calcium liberation in a cell-based calcium fluorescence assay by use of Chinese hamster ovarian (CHO) cells in which the human Edg-2 receptor was stably overexpressed (FIp-In system, Invitrogen). […]
Measured Property: IC50

Sample answers from the record:
* COc1ccc(C(=O)NC2(C(=O)O)Cc3ccccc3C2)cc1OCCc1cc(Cl)ccc1F | < 100 nM
* COc1ccc(C(=O)NC2(C(=O)O)Cc3ccccc3C2)cc1OCCc1cccc(F)c1 | < 100 nM
* COc1cc(C(=O)NC2(C(=O)O)Cc3ccccc3C2)ccc1OCCc1cccc(Cl)c1 | 1000 to 30000 nM
* COc1ccc(C(=O)NC2(C(=O)O)Cc3ccccc3C2)cc1-c1cc(C)cs1 | 100 to 1000 nM
* COc1ccc(C(=O)NC2(C(=O)O)Cc3ccccc3C2)cc1Oc1ccccc1C | 100 to 1000 nM
* COc1ccc(C(=O)NC2(C(=O)O)Cc3ccccc3C2)cc1-c1cccc(Cl)c1Cl | < 100 nM
* COc1ccc(C(=O)NC2(C(=O)O)Cc3ccccc3C2)cc1-c1cc(Cl)cc(C(F)(F)F)c1 | < 100 nM
* COc1ccc(C(=O)NC2(C(=O)O)Cc3ccccc3C2)cc1OCC1C[C@H]2C=C[C@@H]1C2 (stereo partly shown) | 1000 to 30000 nM
* CCc1ccc(CCOc2cc(C(=O)NC3(C(=O)O)Cc4ccccc4C3)ccc2OC)nc1 | 1000 to 30000 nM
* Cc1nccnc1CCOc1cc(C(=O)NC2(C(=O)O)Cc3ccccc3C2)ccc1C(F)(F)F | 1000 to 30000 nM

Supply measured IC50 of CCc1sc(C(=O)NC2(C(=O)O)Cc3ccccc3C2)nc1OCCc1cccc(C)c1 in your reply.
100 to 1000 nM

Supply measured IC50 of COc1ccc(C(=O)NC2(C(=O)O)Cc3ccccc3C2)cc1-c1ccccc1CN(C)C in your reply.
1000 to 30000 nM

Supply measured IC50 of COc1ccc(C(=O)NC2(C(=O)O)Cc3ccccc3C2)cc1OCCc1cc(C)cc(C)c1 in your reply.
1000 to 30000 nM
